Could you please report measured CC90 at 8 days for the items listed next?
experimental.protocol: Cell cytotoxicity assay (MTS), CC90 as reported in Table 1, cell line not stated
Assay type: cell-based
condition.label: human; MTS assay; 8 days incubation; cell line not given

Provide one value: measured CC90 at 8 days of `CC(C)C[C@H]1C(=O)N[C@@H](c2cnco2)CN1C(=O)c1cc(-c2ccc(F)cc2)on1`
> 10 µM

Provide one value: measured CC90 at 8 days of `CC(C)C[C@H]1C(=O)N[C@@H](c2ccsc2)CN1C(=O)[C@@H]1C[C@H]1c1ccc(F)cc1`
> 10 µM

Provide one value: measured CC90 at 8 days of `CCc1ccc(-c2cc(C(=O)N3C[C@H](CC(C)C)NC(=O)[C@@H]3CC(C)C)no2)cc1`
> 10 µM

Provide one value: measured CC90 at 8 days of `CC(C)C[C@H]1C(=O)N[C@@H](C2CCCC2)CN1C(=O)[C@@H]1C[C@H]1c1ccc(F)cc1F`
> 10 µM

Provide one value: measured CC90 at 8 days of `CC(C)C[C@H]1C(=O)N[C@H](c2ccco2)CN1C(=O)c1cc(-c2ccc(F)cc2)on1`
> 10 µM

Provide one value: measured CC90 at 8 days of `CC(C)C[C@H]1C(=O)NC[C@H](c2ccccc2)CN1C(=O)[C@@H]1C[C@H]1c1ccccc1`
> 10 µM

Provide one value: measured CC90 at 8 days of `CC(C)C[C@H]1CN(C(=O)/C=C/c2ccccc2F)[C@@H](CC(C)C)C(=O)N1`
> 10 µM
